# System: Streptococcus pyogenes C203
# Test method notes: MIC, standard agar-dilution assay, Streptococcus pyogenes C203
# Assay type: cell-based
# Assay conditions: Streptococcus pyogenes C203; agar dilution
Recorded MIC values for a group of compounds are listed next.
Quantity kind: MIC (µg/mL)

* CCC1OC(=O)CC(O)C(C)C(OC2OC(C)CC(N(C)C)C2O)C(CCOc2ccccc2)CC(C)C(=O)C=CC(C)=CC1COC1OC(C)C(O)C(OC)C1OC (stereo not drawn) [Compound 70, 20-DH-20-O-Phenyl-4'-deoxydesmycosin] | 0.5
* CCC(=O)OC1C(C)OC(OC2C(CCN3C(=O)c4ccccc4C3=O)CC(C)C(=O)C=CC(C)=CC(COC3OC(C)C(O)C(OC)C3OC)C(CC)OC(=O)CC(O)C2C)C(OC(=O)CC)C1N(C)C (stereo not drawn) [Compound 66] | 2
* CCC1OC(=O)CC(O)C(C)C(OC2OC(C)C(O)C(N(C)C)C2O)C(CCNC(=O)COc2ccccc2)CC(C)C(=O)C=CC(C)=CC1COC1OC(C)C(O)C(OC)C1OC (stereo not drawn) [Compound 51c] | 0.25

* * *

# Tested on: Mycoplasma gallisepticum
# Test method notes: MIC, broth-dilution microtiter test, Mycoplasma gallisepticum
# Format: cell-based
# Assay conditions: Mycoplasma gallisepticum; broth-dilution microtiter
# Source text: The MIC's in Table X were obtained using conventional broth-dilution microtiter tests.
Below is a list of entries, each paired with its recorded MIC value.
Quantity kind: MIC (µg/mL)

- CCC1OC(=O)CC(O)C(C)C(OC2OC(C)C(O)C(N(C)C)C2OC(C)=O)C(CCOc2ccccc2)CC(C)C(=O)C=CC(C)=CC1COC1OC(C)C(O)C(OC)C1OC (stereo not shown) [Compound 67, 20-DH-20-O-Phenyl-2'-O-acetyldesmycosin]: 0.39
- CCC1OC(=O)CC(O)C(C)C(OC2OC(C)C(OC3CC(C)(O)C(O)C(C)O3)C(N(C)C)C2OC(C)=O)C(CCOc2ccccc2)CC(C)C(=O)C=CC(C)=CC1COC1OC(C)C(O)C(OC)C1OC (stereo not shown) [Compound 64, 20-DH-20-O-Phenyl-2'-O-acetyltylosin]: 1.56

* * *

Catalogue of molecules with associated Number of Deaths/Number tested
# Tested on: Pasteurella multocida
# Test method notes: Oral (gavage) treatment of Pasteurella multocida-infected chicks
# Assay type: in vivo, one-day-old chicks
# Assay conditions: 2.0 g/gal equivalent
Quantity kind: Number of Deaths/Number tested

* CCC1OC(=O)CC(O)C(C)C(OC2OC(C)C(O)C(N(C)C)C2O)C(CCF)CC(C)C(=O)C=CC(C)=CC1COC1OC(C)C(O)C(OC)C1OC (stereo not shown) | 1/10
* CCC1OC(=O)CC(O)C(C)C(OC2OC(C)C(O)C(N(C)C)C2O)C(CCSc2nnnn2C)CC(C)C(=O)C=CC(C)=CC1COC1OC(C)C(O)C(OC)C1OC (stereo not shown) | 1/9
* CC[C@H]1OC(=O)C[C@@H](O)[C@H](C)[C@@H](O[C@@H]2O[C@H](C)[C@H](O)[C@H](N(C)C)[C@H]2O)[C@@H](CCOc2ccccc2)C[C@@H](C)C(=O)/C=C/C(C)=C/[C@@H]1COC1O[C@H](C)[C@@H](O)[C@@H](OC)[C@H]1OC (stereo partly shown) | 3/9
* CCC1OC(=O)CC(O)C(C)C(OC2OC(C)C(O)C(N(C)C)C2O)C(CCOc2ccc(OC)cc2)CC(C)C(=O)C=CC(C)=CC1COC1OC(C)C(O)C(OC)C1OC (stereo not shown) | 4/10
